I'd be grateful if you could share measured polymerase ribozyme fitness (log ratio) for these entries.
B1: TPR t1 (parent)
chain: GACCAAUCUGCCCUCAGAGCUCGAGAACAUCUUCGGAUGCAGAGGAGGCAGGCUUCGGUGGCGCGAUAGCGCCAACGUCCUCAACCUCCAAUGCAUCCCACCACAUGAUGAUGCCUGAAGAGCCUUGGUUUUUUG

Variants of: B1
Test: polymerase ribozyme fitness, log enrichment relative to wild type (log ratio); higher = more active; in vitro selection for triplet polymerase activity
One number for each entry.

{"Variant Identifier": "C3U C40G G63C C115U", "Quantity Kind": "polymerase ribozyme fitness (log ratio)", "Result": -2.66}

Dear colleague, could you please provide polymerase ribozyme fitness (log ratio) for the variants listed below?
1. C73U A100U
2. C94G
3. A5G C13U A103U
4. A26U U54C
5. C97U U116G
6. C11U U32A A68C G69U C98A C99A U106A C115G G117C U132A

Ans.
1. -0.959
2. -0.92
3. -4.92
4. -2.99
5. -2.81
6. -6.55

Dear colleague, could you send me polymerase ribozyme fitness (log ratio) for each of the items below? Thanks.
1. C53A A84U U125A
2. G69A C73G G120U
3. C49G C115G G135U
4. C72G C97A
5. G23C G69A G120A A121U C123U U129C
6. C31U G61U A91C
7. C13G A41U C72G C101U

Ans.
1. -1.27
2. -5.64
3. -3.4
4. -5.43
5. -6.52
6. -5.51
7. -3.53

Provide polymerase ribozyme fitness (log ratio) values for the following items, in order.
1. C12A G47C C70U
2. G47C C102U U112C
3. C11G A29G C49G G93U
4. G77A U131A
5. C8A A84G
6. G69A A74G
7. C11U G47A U87A G93U G113C

Ans.
1: -0.753; 2: -1.55; 3: -3.07; 4: 0.113; 5: 0.231; 6: -5.42; 7: -4.49

State the recorded polymerase ribozyme fitness (log ratio) for every item in the following list.
1. C11U C70A U129A
2. A37U G69C U112A G128U

Ans.
-3.59
-4.19
